Cited source: patent US20200283478A1

molecular target: T1, proprotein convertase subtilisin/kexin type 9 (PCSK9) (human, UniProt Q8NBP7 31-692); assay: phage spot ELISA
T1 construct: His-tagged full-length PCSK9 in TR-FRET and SPR, biotinylated in phage ELISA; secreted protein is autoprocessed (prodomain plus catalytic/CRD chain starting at S153); also called rec.PCSK9; His-PCSK9
T1 sequence (Q8NBP7 other isoform, or with tags, fused parts or gaps limits assumed): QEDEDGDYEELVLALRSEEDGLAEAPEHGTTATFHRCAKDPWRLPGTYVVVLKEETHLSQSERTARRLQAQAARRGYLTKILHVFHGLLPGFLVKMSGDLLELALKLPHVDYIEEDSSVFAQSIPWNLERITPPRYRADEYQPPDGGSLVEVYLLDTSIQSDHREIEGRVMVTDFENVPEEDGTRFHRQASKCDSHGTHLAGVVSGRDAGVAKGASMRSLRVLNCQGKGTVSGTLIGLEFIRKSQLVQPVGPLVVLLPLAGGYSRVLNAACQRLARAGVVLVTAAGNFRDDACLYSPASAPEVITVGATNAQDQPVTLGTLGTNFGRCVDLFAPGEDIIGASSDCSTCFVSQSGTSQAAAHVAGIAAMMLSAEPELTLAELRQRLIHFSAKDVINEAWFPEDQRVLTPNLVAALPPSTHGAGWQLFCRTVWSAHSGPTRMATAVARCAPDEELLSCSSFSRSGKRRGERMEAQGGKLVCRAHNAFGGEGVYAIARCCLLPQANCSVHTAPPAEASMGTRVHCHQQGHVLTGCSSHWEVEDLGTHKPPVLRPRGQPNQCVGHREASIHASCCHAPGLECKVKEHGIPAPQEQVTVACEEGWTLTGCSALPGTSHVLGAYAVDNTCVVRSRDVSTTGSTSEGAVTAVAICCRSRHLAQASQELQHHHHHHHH
Please use the following ELISA ranges when assigning a class: LOW: < 0.5; MEDIUM: ≥ 0.5 and < 1; HIGH: ≥ 1

Examples from the recorded data:
SGSYRGAWSVFGGSTD [SEQ ID NO 372]	HIGH
SGTPEMPAML [SEQ ID NO 374]	HIGH
SGPRTYLRGLVD [SEQ ID NO 366]	LOW

Req: Category of SGEHQFYSYRGVDVYR [SEQ ID NO 370] :
Resp: LOW

Req: Determine which band this binder sits in: SGGCVKYRGSVSCQESKT [SEQ ID NO 369]
Resp: LOW

Req: State the class of the binder shown: SGNALWNHDRLT [SEQ ID NO 379]
Resp: MEDIUM

Req: Pick a category. Item: SGNCWSSLRGICENLG [SEQ ID NO 367]
Resp: MEDIUM

Req: Lab note: sort SGMVYVDRGVRVFT [SEQ ID NO 368] into the matching ELISA band.
Resp: MEDIUM

Req: Lab note: sort SGDTRSQLSH [SEQ ID NO 376] into the matching ELISA band.
Resp: HIGH
